Reported TGI values follow for various molecules
System: RPMI-8226 leukemia
Assay: NCI tumour cell line growth inhibition, 48 h

Reference set, count: 3
{"MOLECULE": "CC(C)(C)c1cc(C2=NNC(c3ccccc3)C2)cc(C(C)(C)C)c1O (stereo unspecified)", "QUANTITY MEASURED": "TGI", "RESULT": "43.8 µM"}
{"MOLECULE": "O=C1CSC(c2ccc([N+](=O)[O-])cc2)N1c1ccc(-n2c(-c3ccccc3)nc3ccccc3c2=O)cc1 (stereo unspecified)", "QUANTITY MEASURED": "TGI", "RESULT": "> 100 µM"}
{"MOLECULE": "O=C(O)C1C2CCC(O2)C1C(=O)Nc1cccc2cccnc12 (stereo unspecified)", "QUANTITY MEASURED": "TGI", "RESULT": "> 100 µM"}

Problem: Recorded TGI of O=C(CCc1ccc(O)c(O)c1)NCCc1cc(O)cc(O)c1 , please.
Solution: > 100 µM

Problem: Recorded TGI of N#C/C(c1nc2ccccc2[nH]1)=c1\s/c(=C/c2ccc(Cl)cc2)c(=O)n1-c1ccccc1 , please.
Solution: > 100 µM

Problem: Recorded TGI of CCOC(=O)/C=C/n1c2ccccc2c(=O)c2ccccc21 , please.
Solution: > 100 µM

----------
Tested on: HCC-2998 colon
Test: NCI tumour cell line growth inhibition, 48 h; in the data active = GI50 below about 0.43 µM; inactive = the rest
Give your call using only these classes: TRUE (active), FALSE (inactive)

Would you please look over these solved cases?
{"MOLECULE": "CCC(C)[C@H]1O[C@]2(C=C[C@@H]1C)C[C@@H]1C[C@@H](C/C=C(\\C)[C@@H](OC3C[C@H](OC)C(O[C@H]4C[C@H](OC)[C@@H](O)[C@H](C)O4)[C@H](C)O3)[C@@H](C)/C=C/C=C3\\CO[C@@H]4[C@H](O)C(C)=C[C@@H](C(=O)O1)[C@]34O)O2 (some centres not stated)", "TESTED SYSTEM": "HCC-2998 colon", "CAT": "FALSE"}
{"MOLECULE": "CCN(Cc1ccc(F)cc1)c1ccc(CO)c(F)c1", "TESTED SYSTEM": "HCC-2998 colon", "CAT": "FALSE"}
{"MOLECULE": "CN[C@H](C#Cc1c(F)ccc2c1/C(=C/c1[nH]ccc1OC)C(=O)N2)CO", "TESTED SYSTEM": "HCC-2998 colon", "CAT": "FALSE"}

Problem: Just curious, what result did NC(=O)c1ccc(I)c(N=O)c1 get here?
Solution: FALSE

Problem: Just curious, what result did O=S(=O)(Nc1ccc(Br)c(Cl)c1)c1ccc(-c2cnc(C3CC3)o2)cc1 get here?
Solution: FALSE

Problem: Just curious, what result did COC1/C=C/C(C)C(C(C)C(OC)C(C)CCC(=O)C(C)C(C/C=C/N(C)C=O)OC)OC(=O)/C=C/C=C(\C)CC(OC)CC2=CC(=O)O[C@H](C2)C(C)C(OC)CC(OC)/C=C/C(C)C(OC)C1 (some centres not stated) get here?
Solution: TRUE

Problem: Just curious, what result did O=C(Nc1ccncc1)C(=O)c1cn(Cc2ccc(Cl)cc2)c2ccccc12 get here?
Solution: TRUE

----------
Tested on: OVCAR-4 ovarian
Assay: NCI tumour cell line growth inhibition, 48 h
QUANTITY MEASURED: GI50

Reference set, count: 2
{"MOLECULE": "CCCCC[C@H]1C/C=C2/C(=O)C=C[C@@H]2C/C=C\\CCCC(=O)O[C@@H](CCCCC)C/C=C2/C(=O)C=C[C@@H]2C/C=C\\CCCC(=O)O1", "GI50": "0.475 µM"}
{"MOLECULE": "COc1cccc([C@H]2C/C(=N\\NC(=O)C(=O)N[C@@H](C)c3ccccc3)c3ccccc3N2)c1", "GI50": "45.3 µM"}

Problem: Recorded GI50 of C=CCC1(O)c2ccccc2C(=O)c2c(NCCN(CC(=O)OCC)CC(=O)OCC)cccc21 (stereo not given) , please.
Solution: > 100 µM

Problem: Recorded GI50 of CCOC(=O)c1c2c(n(Cc3ccc(Cl)cc3Cl)c1C)-c1nc[nH]c1C(=O)C2=O , please.
Solution: 6.58 µM

Problem: Recorded GI50 of COC1=CC(c2ccc[nH]2)=N/C1=C\c1[nH]c(C)c(C(=O)CCCCC(=O)NC(C)(C)C)c1C , please.
Solution: 1.78 µM

----------
Test system: SK-MEL-28 melanoma
Test: NCI tumour cell line growth inhibition, 48 h
Reported TGI values follow for various compounds

Reference set, count: 5
{"COMPOUND": "O=c1[nH]nc2ccccc2c1Cc1ccccc1", "TGI": "> 100 µM"}
{"COMPOUND": "c1ccc(CN2CCC3(CC2)SSC2(CCN(Cc4ccccc4)CC2)S3)cc1", "TGI": "> 100 µM"}
{"COMPOUND": "CCN(CC(=O)O)C(=O)c1cccnc1", "TGI": "> 100 µM"}
{"COMPOUND": "CCCCCCCCC/C=C/C=C/C(=O)NCC(=O)NC1C(O)C(O)C(Nc2ncnc3nc[nH]c23)OC1C(O)CO (stereo not given)", "TGI": "3.25 µM"}
{"COMPOUND": "COc1cccc([C@H]2C/C(=N\\NC(=O)C(=O)N[C@@H](C)c3ccccc3)c3ccccc3N2)c1", "TGI": "> 100 µM"}

Problem: Recorded TGI of CCCN(CCCc1ccccc1)CCc1ccc2[nH]c(=S)[nH]c2c1 , please.
Solution: 51.5 µM

Problem: Recorded TGI of Clc1cc(Cl)cc(C=NC23CC4CC(CC(C4)C2)C3)c1 , please.
Solution: > 10 µM

Problem: Recorded TGI of CN(C)CC(CC1=C(CC(CN(C)C)N(C)C)CCC1)N(C)C (stereo not given) , please.
Solution: > 100 µM

Problem: Recorded TGI of O=C1CSC(c2ccc([N+](=O)[O-])cc2)N1c1ccc(-n2c(-c3ccccc3)nc3ccccc3c2=O)cc1 (stereo not given) , please.
Solution: > 100 µM

Problem: Recorded TGI of CCOC(=O)C(NC(=O)c1ccco1)(Nc1nc2ccc(OCC)cc2s1)C(F)(F)F (stereo not given) , please.
Solution: > 100 µM

Problem: Recorded TGI of CN(C)C(=S)/N=c1\ssc(=S)n1Cc1ccccc1 , please.
Solution: > 63.1 µM

Problem: Recorded TGI of COc1cc(OC)nc(-n2c(N)c(C#N)c3ccc([N+](=O)[O-])cc3c2=O)n1 , please.
Solution: > 100 µM

Problem: Recorded TGI of CCOC(=O)c1cn2c(n1)sc1c(Cl)c(Cl)ccc12 , please.
Solution: > 100 µM

Problem: Recorded TGI of CN1c2ccccc2N(C(=O)c2ccc(Cl)cc2)C(CC(=O)O)c2cccn21 (stereo not given) , please.
Solution: > 100 µM

Problem: Recorded TGI of Cc1cc2c(C)nn(Cc3ccccc3)c2c(C(N)=O)c1C , please.
Solution: > 100 µM

Problem: Recorded TGI of O=C(O)C1OC1(c1cccc(Cl)c1)c1ccccc1Cl (stereo not given) , please.
Solution: 61.3 µM

Problem: Recorded TGI of Cc1cc(NCCN(C(C)C)C(C)C)nc(/N=C(\N)Nc2ccc(Cl)c(C(F)(F)F)c2)n1 , please.
Solution: 0.32 µM

Problem: Recorded TGI of Cc1ccc(NC2=CC(=O)C(NO)c3ccccc32)cc1 (stereo not given) , please.
Solution: 29.5 µM

Problem: Recorded TGI of CCCc1cc(=O)[nH]c(-n2nc(C)cc2C)n1 , please.
Solution: 40.4 µM

Problem: Recorded TGI of CCn1cc(C(=O)N/N=C/c2ccccc2)c(=O)c2cc(F)c(N3CCNC(C)C3)c(F)c21 (stereo not given) , please.
Solution: 3.19 µM

Problem: Recorded TGI of CC(=O)Oc1ccc(-c2cc3ccccc3oc2=O)cc1 , please.
Solution: > 100 µM

Problem: Recorded TGI of CCCCC[C@H]1C/C=C2/C(=O)C=C[C@@H]2C/C=C\CCCC(=O)O[C@@H](CCCCC)C/C=C2/C(=O)C=C[C@@H]2C/C=C\CCCC(=O)O1 , please.
Solution: 0.675 µM

Problem: Recorded TGI of O=C(/C=C/c1ccccc1)NNC(=O)c1c(Cl)c(Cl)c(Cl)c(Cl)c1-c1nc2ccccc2[nH]1 , please.
Solution: > 100 µM

Problem: Recorded TGI of Nc1ccc2c(SCc3ccc([N+](=O)[O-])cc3)c3ccccc3nc2c1 , please.
Solution: 33.5 µM

----------
System: MALME-3M melanoma
Assay: NCI tumour cell line growth inhibition, 48 h
QUANTITY MEASURED: TGI

Reference set, count: 5
{"COMPOUND": "O=C(Cn1c(=O)c(-c2ccccc2)nc2ccccc21)Nc1ccc(F)cc1", "TESTED SYSTEM": "MALME-3M melanoma", "TGI": "> 100 µM"}
{"COMPOUND": "COc1ccc(CC(=O)N2CCC3(C)CC(=O)CC=C23)cc1OC (stereo unspecified)", "TESTED SYSTEM": "MALME-3M melanoma", "TGI": "> 100 µM"}
{"COMPOUND": "CCN(CC)CCOc1ccc(CCc2cc(OC)c(OC)c(OC)c2)cc1", "TESTED SYSTEM": "MALME-3M melanoma", "TGI": "> 100 µM"}
{"COMPOUND": "CC(C)(C)c1cc(C2=NNC(c3ccccc3)C2)cc(C(C)(C)C)c1O (stereo unspecified)", "TESTED SYSTEM": "MALME-3M melanoma", "TGI": "34.7 µM"}
{"COMPOUND": "C=CCc1cccc2cc(C(=O)Nc3ccccc3)c(=N)oc12", "TESTED SYSTEM": "MALME-3M melanoma", "TGI": "58.7 µM"}

Problem: Recorded TGI of Cc1nn(C(=O)Cc2ccccc2)c2c1C(c1ccc(O)cc1O)SC(N)=N2 (stereo unspecified) , please.
Solution: > 100 µM
